tested.system: Gag-Pol polyprotein (Human immunodeficiency virus type 1 group M subtype B (isolate HXB2)) (UniProt P04585)
test.details: RNase H inhibition, HIV 1 Gag Pol polyprotein, FRET biochemical assay, screening (AID 372)
condition.summary: HIV-1 RT RNase H, FRET RNA/DNA substrate fluorescence; at 10 µM
Out of some 100,000 compounds screened, about 770 (0.77%) were called active. Rule as the data show it: active = inhibition above about 50%; inactive = the rest. What follows is part of a selection rich in actives, with near analogues and random picks from the rest.
Bench note: report the call from active, inactive

Worked cases, answers included:
| molecule | classification |
| --- | --- |
| C=CCN1C(=O)/C(=C\c2ccc(-c3ccc(C(=O)OCC)cc3)o2)C(=O)NC1=S | inactive |
| Cc1ccc(-c2nc3ccccc3o2)cc1NC(=O)COc1ccc(Cl)cc1 | inactive |
| Cc1ccc(N(CC(=O)NCc2cccnc2)S(=O)(=O)c2ccc(F)cc2)cc1 | inactive |
| CCNC(=O)/C(C#N)=C/c1ccc(O)c(OCC)c1 | inactive |
| Cc1ccc(-c2nc3cc(Cl)ccc3o2)cc1NC(=O)c1cccc(Cl)c1 | inactive |

**Query** Would you mind telling me which call this test gave Cc1ccccc1-c1nc2c3c4c(sc3ncn2n1)CCCCC4 ?
**Result** inactive

====

Below is a list of entries, each paired with its recorded inhibition value.
tested.system: Gag-Pol polyprotein (Human immunodeficiency virus type 1 group M subtype B (isolate HXB2)) (UniProt P04585)
test.details: RNase H inhibition, HIV 1 Gag Pol polyprotein, FRET biochemical assay, screening (AID 372)
condition.summary: HIV-1 RT RNase H, FRET RNA/DNA substrate fluorescence; at 10 µM; stronger effect = higher value
Out of some 100,000 compounds screened, about 770 (0.77%) were called active. What follows is part of a selection rich in actives, with near analogues and random picks from the rest.
Respond with the bare value in %.

Take a look at these entries with their results.
| structure.string | inhibition [%] |
| --- | --- |
| Cc1sc(NC(=O)c2ccccc2C(=O)O)c(C#N)c1C | 3 |
| O=[N+]([O-])c1ccc(Cl)c(C=Nn2c(-c3ccc(Cl)cc3Cl)n[nH]c2=S)c1 | 16 |
| Clc1ccc(-c2nnc(-c3ccc4c(c3)OCO4)o2)c(Cl)c1 | 3 |
| Cn1c(=O)c2c(nc(Sc3nc4ccccc4o3)n2C)n(C)c1=O | 0 |
| O=C1S/C(=C/c2ccc(F)cc2)C(=O)N1CNc1ccc(I)cc1 | 4 |
| Cc1ccc(N2C(=O)NC(=O)/C(=C\c3cccc(C(F)(F)F)c3)C2=O)cc1C | 5 |
| CCOc1cc(/C=C2\SC(N)=NC2=O)ccc1OCCOc1ccc(Cl)c(C)c1 | 30 |
| COc1cccc(/C=C2/SC(=O)N(CNc3ccc(Br)cc3C)C2=O)c1 | 58 |
| O=C1S/C(=C/c2ccccc2F)C(=O)N1CNc1ccc(I)cc1 | 57 |

Now for a further compound.
**Query** Consider the compound shown here: O=C1S/C(=C/c2ccccc2)C(=O)N1CNc1ccc(I)cc1 What is its recorded inhibition?
**Result** 3

====

// values below are reported inhibition
tested.system: Gag-Pol polyprotein (Human immunodeficiency virus type 1 group M subtype B (isolate HXB2)) (UniProt P04585)
test.details: RNase H inhibition, HIV 1 Gag Pol polyprotein, FRET biochemical assay, screening (AID 372)
condition.summary: HIV-1 RT RNase H, FRET RNA/DNA substrate fluorescence; at 10 µM; stronger effect = higher value
Hit rate of the full screen: of about 100,000 compounds, about 770 (0.77%) were called active. This is one part of a sample in which actives are shown more often than they occur.
Field: numeric (%). Do not append units.

As a guide, the following entries are already answered.
| structure.string | measurement.type | quantitative.result |
| --- | --- | --- |
| O=C(Nc1ccc2nn(-c3ccccc3)nc2c1)c1ccc(Cl)c([N+](=O)[O-])c1 | inhibition | 21 |
| O=C(COc1ccc([N+](=O)[O-])cc1)Nc1ccc2oc(-c3ccccc3F)nc2c1 | inhibition | 49 |
| CCc1ccc(-c2nc3cc(NC(=O)COc4ccc([N+](=O)[O-])cc4)ccc3o2)cc1 | inhibition | 43 |
| COc1ccc(C(=O)NC(=S)Nc2ccc3nn(-c4ccc(F)cc4)nc3c2)cc1[N+](=O)[O-] | inhibition | 38 |

Next, consider the following compound.
**Query** Please look up its inhibition: Cc1ccc(C(=O)Nc2ccc(-c3nc4cc5ccccc5cc4[nH]3)cc2)cc1[N+](=O)[O-]
**Result** 80
